System: mice
Assay: Muscle relaxing and sedative activity in mice (slowly rotating wire cylinders, Young and Lewis)
Type: in vivo, NMRI-mice, female
Details: Mus musculus, po, after 90-120 minutes, read-out: ED50 (50% of the animals fall out of rotating cylinder)
property name: log10 of ED50 (log10 of the value in mg/kg)
Values reflect log10 of reported ED50 (mg/kg).

CC(C)Cc1ccc([C@]2(O)C(C)(C)[C@@H](N3CCN(c4ccccc4)CC3)C2(C)C)cc1; 0.48
CC1(C)[C@H](N2CCN(c3ccccn3)CC2)C(C)(C)[C@@]1(O)c1cccc(Cl)c1; 0.90
CC(C)c1ccc([C@]2(O)C(C)(C)[C@@H](N3CCN(c4ccccn4)CC3)C2(C)C)cc1; 0.90
COc1ccc(N2CCN([C@H]3C(C)(C)[C@](O)(c4ccc(O)cc4)C3(C)C)CC2)cc1; 1.20
CC1(C)[C@H](N2CCN(c3ccccc3)CC2)C(C)(C)[C@@]1(O)c1ccc(O)cc1; 1.04
CC1(C)[C@H](N2CCN(c3ccccn3)CC2)C(C)(C)[C@@]1(O)c1ccc(Cl)cc1; 1.34

Identify the measured log10 of ED50 of CC(C)Cc1ccc([C@]2(O)C(C)(C)[C@@H](N3CCN(c4ccccn4)CC3)C2(C)C)cc1 for mice.
0.60

Identify the measured log10 of ED50 of CC(C)(C)c1ccc([C@]2(O)C(C)(C)[C@@H](N3CCN(c4ccccn4)CC3)C2(C)C)cc1 for mice.
1.00

Identify the measured log10 of ED50 of CC(C)c1ccc([C@]2(O)C(C)(C)[C@@H](N3CCN(c4ccccc4)CC3)C2(C)C)cc1 for mice.
0.60

Identify the measured log10 of ED50 of CCC(C)c1ccc([C@]2(O)C(C)(C)[C@@H](N3CCN(c4ccccc4)CC3)C2(C)C)cc1 (some centres unmarked) for mice.
0.00

Identify the measured log10 of ED50 of CC(C)(C)c1ccc([C@]2(O)C(C)(C)[C@@H](N3CCN(c4ccccc4)CC3)C2(C)C)cc1 for mice.
0.90

Identify the measured log10 of ED50 of CCCCc1ccc([C@]2(O)C(C)(C)[C@@H](N3CCN(c4ccccn4)CC3)C2(C)C)cc1 for mice.
0.60

Identify the measured log10 of ED50 of CC1(C)[C@H](N2CCN(c3ccc(O)cc3)CC2)C(C)(C)[C@@]1(O)c1ccc(O)cc1 for mice.
1.11

Identify the measured log10 of ED50 of CCC(C)c1ccc([C@]2(O)C(C)(C)[C@@H](N3CCN(c4ccccn4)CC3)C2(C)C)cc1 (some centres unmarked) for mice.
0.60

Identify the measured log10 of ED50 of COc1ccc([C@]2(O)C(C)(C)[C@@H](N3CCN(c4ccccc4)CC3)C2(C)C)cc1OC for mice.
1.51

Identify the measured log10 of ED50 of CCCCc1ccc([C@]2(O)C(C)(C)[C@@H](N3CCN(c4ccccc4)CC3)C2(C)C)cc1 for mice.
1.34

Identify the measured log10 of ED50 of CC1(C)[C@H](N2CCN(c3ccccn3)CC2)C(C)(C)[C@@]1(O)c1ccc(O)cc1 for mice.
0.88
